Target: KRAS G12V (Homo sapiens (Human), UniProt P01116+P62937, G12V)
Sequence (P01116 other isoform, or with tags, fused parts or gaps G12V): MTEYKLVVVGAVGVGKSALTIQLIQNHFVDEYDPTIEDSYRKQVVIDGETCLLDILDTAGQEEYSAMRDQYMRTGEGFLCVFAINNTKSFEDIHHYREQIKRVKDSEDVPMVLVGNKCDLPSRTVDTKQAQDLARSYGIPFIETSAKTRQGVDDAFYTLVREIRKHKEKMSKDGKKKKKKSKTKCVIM
Sequence (P62937 whole entry): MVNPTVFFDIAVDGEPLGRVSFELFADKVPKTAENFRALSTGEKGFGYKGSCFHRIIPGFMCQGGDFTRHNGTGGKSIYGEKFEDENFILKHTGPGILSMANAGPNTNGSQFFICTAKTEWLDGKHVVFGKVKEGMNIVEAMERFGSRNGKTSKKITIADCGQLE
Assay: Ras-Raf disruption/FRET/MOA assay (BRAF RBD, Cyclophilin A)
Type: biochemical
Details: KRAS G12V FRET IC50
pIC50: −log10 of the molar value.
measured-attribute: pIC50

Indicate the recorded pIC50 value for this molecule: CCn1c(-c2cccnc2[C@H](C)OC)c2c3cc(ccc31)-c1cc(O)cc(c1)C[C@H](NS(=O)(=O)c1ccc(OC)cc1OC)C(=O)N1CCC[C@H](N1)C(=O)OCC(C)(C)C2 [Compound A198]
< 5.00

* * *

Target: KRAS G13D (Homo sapiens (Human), UniProt P01116+P62937, G13D)
Sequence (P01116 other isoform, or with tags, fused parts or gaps G13D): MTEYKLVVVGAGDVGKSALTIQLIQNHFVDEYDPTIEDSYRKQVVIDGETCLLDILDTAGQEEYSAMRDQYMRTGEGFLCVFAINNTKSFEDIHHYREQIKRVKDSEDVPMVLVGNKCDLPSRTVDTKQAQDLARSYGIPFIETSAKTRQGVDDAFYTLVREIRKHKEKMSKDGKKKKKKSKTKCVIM
Sequence (P62937 whole entry): as the sequence (P62937 whole entry) above
Experiment: Ras-Raf disruption/FRET/MOA assay, KRAS G13D
Assay type: biochemical
Conditions: read-out: KRAS G13D FRET IC50
pIC50: −log10 of the molar value.
measured-attribute: pIC50

Look over these answered cases.
CCn1c(-c2cnccc2COC)c2c3cc(ccc31)-c1cc(O)cc(c1)C[C@H](NC(=O)[C@H](C(C)C)N(C)C(=O)C1CCN(C(=O)[C@H]3CN3)CC1)C(=O)N1CCC[C@H](N1)C(=O)OCC(C)(C)C2 [Example 3] :: 6.00 to 7.00
CCn1c(-c2cnccc2COC)c2c3cc(ccc31)-c1cc(O)cc(c1)C[C@H](NC(=O)[C@H](C(C)C)N(C)C(=O)c1ccc(NC(=O)[C@@H]3CN3)cn1)C(=O)N1CCC[C@H](N1)C(=O)OCC(C)(C)C2 [Example 46] :: 5.00 to 6.00
CCn1c(-c2cnccc2COC)c2c3cc(ccc31)-c1cc(O)cc(c1)C[C@H](NC(=O)[C@H](C(C)C)N(C)C(=O)N1CCCN(C(=O)[C@H]3CN3)CC1)C(=O)N1CCC[C@H](N1)C(=O)OCC(C)(C)C2 [Example 44] :: 6.00 to 7.00

Now consider the entry below.
Specify measured pIC50 for CCn1c(-c2cnccc2COC)c2c3cc(ccc31)-c1cc(O)cc(c1)C[C@H](NC(=O)[C@H](C(C)C)N(C)C(=O)C1CN(C(=O)[C@@H]3CN3)C1)C(=O)N1CCC[C@H](N1)C(=O)OCC(C)(C)C2 [Example 6] .
5.00 to 6.00

* * *

Biological target: KRAS G12C (Homo sapiens (Human), UniProt P01116+P62937, G12C)
Sequence (P01116-2 other isoform, or with tags, fused parts or gaps G12C): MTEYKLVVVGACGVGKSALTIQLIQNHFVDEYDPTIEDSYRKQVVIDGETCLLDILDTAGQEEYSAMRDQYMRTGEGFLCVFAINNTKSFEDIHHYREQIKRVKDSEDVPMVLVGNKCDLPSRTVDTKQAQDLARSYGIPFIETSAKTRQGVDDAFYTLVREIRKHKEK
Sequence (P62937 whole entry): as the sequence (P62937 whole entry) above
Assay: Ras-Raf disruption/FRET/MOA assay (BRAF RBD, Cyclophilin A)
Assay type: biochemical
Details: read-out: KRAS G12C FRET IC50
pIC50: −log10 of the molar value.
measured-attribute: pIC50

Check out these entries, answers already filled in.
CCn1c(-c2cccnc2[C@H](C)OC)c2c3cc(ccc31)-c1cc(O)cc(c1)C[C@H](NC(=O)[C@H](C(C)C)N(C)C(=O)C1CCC1)C(=O)N1CCC[C@H](N1)C(=O)OCC(C)(C)C2 :: 7.00 to 8.00
CCn1c(-c2cnccc2COC)c2c3cc(ccc31)-c1cc(O)cc(c1)C[C@H](NC(=O)[C@H](C(C)C)N(C)C(=O)[C@H]1CCN(C[C@H](C)O)C1)C(=O)N1CCC[C@H](N1)C(=O)OCC(C)(C)C2 :: 6.00 to 7.00
CCn1c(-c2cnccc2COC)c2c3cc(ccc31)-c1cc(O)cc(c1)C[C@H](NC(=O)[C@H](C(C)C)N(C)C(=O)O[C@@H]1CCOC1)C(=O)N1CCC[C@H](N1)C(=O)OCC(C)(C)C2 :: 6.00 to 7.00

Indicate the recorded pIC50 value for this compound: CCn1c(-c2cccnc2[C@H](C)OC)c2c3cc(ccc31)-c1cc(O)cc(c1)C[C@H](NC(=O)[C@H](C(C)C)N(C)C(=O)[C@H]1C[C@@H]1O)C(=O)N1CCC[C@H](N1)C(=O)OCC(C)(C)C2
> 8.00

Could you please provide reported pIC50 for CCn1c(-c2cccnc2[C@H](C)OC)c2c3cc(ccc31)-c1cc(O)cc(c1)C[C@H](NC(=O)[C@H](C(C)C)N(C)C(=O)C1CNCCO1)C(=O)N1CCC[C@H](N1)C(=O)OCC(C)(C)C2 (stereo partly drawn) ? Thanks!
7.00 to 8.00

* * *

// values below are reported pIC50
Target: KRAS G12S (Homo sapiens (Human), UniProt P01116+P62937, G12S)
Sequence (P01116 other isoform, or with tags, fused parts or gaps G12S, one chain of several): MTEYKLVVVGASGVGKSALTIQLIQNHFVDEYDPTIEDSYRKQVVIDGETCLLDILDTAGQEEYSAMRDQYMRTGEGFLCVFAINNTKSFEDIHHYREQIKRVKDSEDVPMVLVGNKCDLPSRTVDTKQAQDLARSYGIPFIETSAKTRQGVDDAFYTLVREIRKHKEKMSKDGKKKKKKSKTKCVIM
Assay: Ras-Raf disruption/FRET/MOA assay (BRAF RBD, Cyclophilin A)
Assay type: biochemical
Conditions: read-out: KRAS G12S FRET IC50
Protocol: Compound is present in plate wells as a 10-point 3-fold dilution series starting at a final concentration of 30 μM. After incubation at 25° C. for 3 hours, a mixture of Anti-His Eu—W1024 and anti-GST allophycocyanin is then added to assay sample wells at final concentrations of 10 nM and 50 nM, respectively, and the reaction incubated for an additional 1.5 hours. […]
pIC50: −log10 of the molar value.

CCn1c(-c2cccnc2[C@H](C)OC)c2c3cc(ccc31)-c1csc(n1)C[C@H](NC(=O)N1CCC1)C(=O)N1CCC[C@H](N1)C(=O)OCC(C)(C)C2 [Compound A368] :: 6.00 to 7.00
CCn1c(-c2cccnc2[C@H](C)OC)c2c3cc(ccc31)-c1csc(n1)C[C@H](NC(=O)[C@H](C(C)C)N(C)C(=O)[C@@H]1OCC[C@@H]1c1ccccc1)C(=O)N1CCC[C@H](N1)C(=O)OCC(C)(C)C2 :: 6.00 to 7.00
CCn1c(-c2cnccc2COC)c2c3cc(ccc31)-c1cc(O)cc(c1)C[C@H](NC(=O)[C@@H](OC(=O)N1CCCC1)C(C)C)C(=O)N1CCC[C@H](N1)C(=O)OCC(C)(C)C2 :: 5.00 to 6.00
CCn1c(-c2cccnc2[C@H](C)OC)c2c3cc(ccc31)-c1csc(n1)C[C@H](NC(=O)[C@H](C(C)C)N(C)C(=O)N1C[C@H]3CN(C)CC[C@H]31)C(=O)N1CCC[C@H](N1)C(=O)OCC(C)(C)C2 :: 5.00 to 6.00

Next up:
Provide measured pIC50 value, entry: CCn1c(-c2ccccc2[C@H](C)OC)c2c3cc(ccc31)-c1csc(n1)C[C@H](NC(=O)[C@H](C(C)C)N(C)C(=O)[C@H]1CCN(C(=O)OC3COC3)C1)C(=O)N1CCC[C@H](N1)C(=O)OCC(C)(C)C2
5.00 to 6.00

* * *

IC50 values by entry
Biological target: KRAS WT (Homo sapiens (Human), UniProt P01116+P62937)
Sequence (P01116 other isoform, or with tags, fused parts or gaps, one chain of several): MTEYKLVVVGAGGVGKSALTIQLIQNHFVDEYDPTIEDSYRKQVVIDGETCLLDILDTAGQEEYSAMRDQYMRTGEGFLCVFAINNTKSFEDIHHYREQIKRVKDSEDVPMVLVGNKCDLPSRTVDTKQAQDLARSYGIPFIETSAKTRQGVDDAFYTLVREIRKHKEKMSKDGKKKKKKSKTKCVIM
Test: Ras-Raf disruption/FRET/MOA assay (BRAF RBD, Cyclophilin A)
Format: biochemical
Details: read-out: KRAS WT FRET data IC50

Known results for compounds:
CCn1c(-c2cccnc2[C@H](C)OC)c2c3cc(ccc31)-c1csc(n1)C[C@H](NC(=O)[C@H](C(C)C)N(C)C(=O)N1CCN3CCOCC3C1)C(=O)N1CCC[C@H](N1)C(=O)OCC(C)(C)C2 (stereo partly drawn) :: 100 to 1000 nM
CCn1c(-c2cccnc2[C@H](C)OC)c2c3cc(ccc31)-c1csc(n1)C[C@H](NC(=O)[C@H](C(C)C)N(C)C(=O)N1CCO[C@@]3(CCN(C)C3)C1)C(=O)N1CCC[C@H](N1)C(=O)OCC(C)(C)C2 :: 100 to 1000 nM

Recall and state the measured IC50 for CCn1c(-c2cccnc2[C@H](C)OC)c2c3cc(ccc31)-c1cc(O)cc(c1)C[C@H](NC(=O)C13CCCC1C3(F)F)C(=O)N1CCC[C@H](N1)C(=O)OCC(C)(C)C2 (stereo partly drawn) .
1000 to 10000 nM

* * *

Target: KRAS G12C (Homo sapiens (Human), UniProt P01116+P62937, G12C)
Test: Ras-Raf disruption/FRET/MOA assay (BRAF RBD, Cyclophilin A)
Type: biochemical
Conditions: read-out: KRAS G12C FRET IC50
Overview of reported IC50 across a group of compounds:

These recorded examples may help you get a feel for the data.
CCn1c(-c2cccnc2[C@H](C)OC)c2c3cc(ccc31)-c1csc(n1)C[C@H](NC(=O)[C@H](C(C)C)N(C)C(=O)N1CCC1)C(=O)N1CCC[C@H](N1)C(=O)OCC(C)(C)C2 :: 10 to 100 nM
CCn1c(-c2cccnc2[C@H](C)OC)c2c3cc(ccc31)-c1csc(n1)C[C@H](NC(=O)[C@H](C(C)C)N(C)C(=O)[C@H]1CCN(CCO)C1)C(=O)N1CCC[C@H](N1)C(=O)OCC(C)(C)C2 :: 1000 to 10000 nM

From here, focus on the item given below.
Enter recorded IC50 with KRAS G12C (Homo sapiens (Human), UniProt P01116+P62937, G12C) for CCn1c(-c2cccnc2[C@H](C)OC)c2c3cc(ccc31)-c1cc(CF)cc(c1)C[C@H](NC(=O)[C@H](C(C)C)N(C)C(=O)[C@@H]1OCC[C@@H]1c1ccccc1)C(=O)N1CCC[C@H](N1)C(=O)OCC(C)(C)C2 here.
10 to 100 nM
